smi | melting point
O=C(Cc1cccnc1)NCc1ccc(C(=O)Nc2ccccc2O)cc1 | 201 to 202 °C
Nc1ccccc1NC(=O)c1ccc(NC(=O)CCc2cccnc2)cc1 | 184 to 186 °C
Cl.Cl.Nc1ccccc1NC(=O)c1ccc(NC(=O)Cc2cccnc2)cc1 | 182 to 189 °C (dec.)
Nc1ccccc1NC(=O)c1ccc(CNC(=O)c2ccc[nH]2)cc1 | 216 to 220 °C (dec.)
COc1cc(C(=O)NCc2ccc(C(=O)Nc3ccccc3N)cc2)cc(OC)c1OC | 208 to 210 °C (dec.)
CN(C)c1ccc(CC(=O)Nc2ccc(C(=O)Nc3ccccc3N)cc2)cc1 | 140 °C
CN(C(=O)COCc1cccnc1)c1ccc(C(=O)Nc2ccccc2N)cc1 | 180 to 183 °C (dec.)
Nc1ccc(CC(=O)Nc2ccc(C(=O)Nc3ccccc3N)cc2)cc1 | 219 to 226 °C (dec.)
Cc1cccc(C(=O)NCc2ccc(C(=O)Nc3ccccc3N)cc2)n1 | 172 to 173 °C
Nc1ccccc1NC(=O)c1ccc(CNC(=O)c2cnccn2)cc1 | 207 °C (dec.)
COc1cccc(C(=O)NCc2ccc(C(=O)Nc3ccccc3N)cc2)c1 | 182 to 185 °C
Nc1cccc(COC(=O)NCc2ccc(C(=O)Nc3ccccc3N)cc2)c1 | 149 to 153 °C (dec.)
Nc1ccccc1NC(=O)c1ccc(-n2cc(COCc3cccnc3)oc2=O)cc1 | 160 to 164 °C (dec.)
Nc1ccccc1NC(=O)c1ccc(NC(=O)CN(Cc2cccnc2)C(=O)C(F)(F)F)cc1 | 145 °C (dec.)
Cc1cc(C(=O)NCc2ccc(C(=O)Nc3ccccc3N)cc2)sn1 | 168 to 169 °C
Nc1ccccc1NC(=O)c1ccc(CCC(=O)NCc2cccnc2)cc1 | 168 to 170 °C
Cn1cncc1COC(=O)NCc1ccc(C(=O)Nc2ccccc2N)cc1 | 162 to 165 °C (dec.)
Nc1ccccc1NC(=O)c1ccc(COC(=O)NCc2cccnc2)cc1 | 139 to 141 °C
Nc1ccccc1NC(=O)c1ccc(CNC(=O)c2ccc(C(F)(F)F)cc2)cc1 | 243 to 246 °C
Nc1ccccc1NC(=O)c1ccc(CNC(=O)c2cccnc2Cl)cc1 | 176 to 178 °C (dec.)
COc1ccc(C(=O)NCc2ccc(C(=O)Nc3ccccc3N)cc2)cc1 | 149 to 151 °C
Nc1ccccc1NC(=O)c1ccc(NC(=O)CNC(=O)c2cccnc2)cc1 | 218 to 220 °C (dec.)
Nc1ccccc1NC(=O)c1ccc(CNC(=O)OCCCc2cccnc2)cc1 | 121 to 124 °C
Nc1ccccc1NC(=O)c1ccc(CNC(=O)COc2cccnc2)cc1 | 154 to 155 °C
Nc1ccccc1NC(=O)Cc1cc2cc(NC(=O)OCc3cccnc3)ccc2o1 | 173 to 174 °C
Nc1ccccc1NC(=O)c1ccc(NC(=O)CC(=O)Nc2cccnc2)cc1 | 196 °C (dec.)
Nc1ccccc1NC(=O)c1ccc(NC(=O)COCc2ccsc2)cc1 | 186 to 189 °C
Nc1ccccc1NC(=O)c1ccc(CNC(=O)OCc2cnccn2)cc1 | 182 °C
Nc1ccccc1NC(=O)c1ccc(CNC(=O)CC(=O)c2cccnc2)cc1 | 204 to 206 °C
Nc1ccccc1NC(=O)c1ccc(C(=O)NCc2ccccc2)cc1 | 239 to 241 °C (dec.)
Cc1ccc(O)c(NC(=O)c2ccc(CNC(=O)OCc3cccnc3)cc2)c1 | 155 to 155.5 °C
CN(C)c1ccc(C(=O)NCc2ccc(C(=O)Nc3ccccc3N)cc2)cc1 | 216 to 219 °C (dec.)
Nc1ccccc1COC(=O)NCc1ccc(C(=O)Nc2ccccc2N)cc1 | 149 to 151 °C (dec.)
Nc1ccccc1NC(=O)c1ccc(NC(=O)COc2ccc([N+](=O)[O-])cc2)cc1 | 212 to 215 °C (dec.)
Nc1ccccc1NC(=O)c1ccc(CNC(=O)c2cccnc2)cc1 | 193 to 196 °C
COc1ccc(O)c(NC(=O)c2ccc(CNC(=O)OCc3cccnc3)cc2)c1 | 175 to 176 °C
Nc1ccccc1NC(=O)c1ccc(NC(=O)CCCc2cccnc2)cc1 | 165 to 167 °C (dec.)

====

This section presents compounds with their documented minimal effective concentration values.
- Test system: A2780 cells
- procedure text: Test for induction of differentiation in A2780 cells (ALP activity, ALPmin)
- Format: cell-based, human
- study conditions: A2780 cells, 3 days incubation; minimum concentration of the drug inducing increase of ALP activity
measurement name: minimal effective concentration (µM)

compound | assay system | value reported
Nc1ccccc1NC(=O)c1ccc(CNC(=O)Nc2cccnc2)cc1 [Example 91] | A2780 cells | 0.1
Nc1ccccc1NC(=O)c1ccc(N2CC(COc3ccc([N+](=O)[O-])cc3)OC2=O)cc1 (centres unmarked) [Example 137] | A2780 cells | 1
Nc1ccccc1NC(=O)c1cc2cc(NC(=O)CCc3cccnc3)ccc2o1 [Example 128] | A2780 cells | 0.1
Nc1ccccc1NC(=O)c1ccc(CNC(=S)Nc2cccc([N+](=O)[O-])c2)cc1 [Example 93] | A2780 cells | 3
Nc1cccc(NC(=S)NCc2ccc(C(=O)Nc3ccccc3N)cc2)c1 [Example 92] | A2780 cells | 3

====

This section presents compounds with their documented melting point values.

compound | melting point
Nc1ccccc1NC(=O)c1ccc(CNC(=O)OCCc2cccnc2)cc1 [Example 54] | 120 to 125 °C
Nc1ccccc1NC(=O)c1ccc(CNC(=O)c2ccccc2Cl)cc1 [Example 2] | 201 to 204 °C (dec.)
Nc1ccccc1NC(=O)c1ccc(CNC(=O)c2ccncc2)cc1 [Example 19] | 234 to 237 °C (dec.)

====

This section presents compounds with their documented melting point values.

smi | melting point
COc1cncc(COC(=O)NCc2ccc(C(=O)Nc3ccccc3N)cc2)c1 | 169 to 170 °C
Nc1ccccc1NC(=O)c1ccc(CNC(=O)c2ccc(Cl)nc2)cc1 | 205 to 208 °C (dec.)
Nc1ccccc1NC(=O)c1ccc(CNC(=O)Oc2ccccc2)cc1 | 174 to 175 °C
Nc1ccccc1NC(=O)c1ccc(C(=O)NCCc2ccccc2)cc1 | 237 to 240 °C (dec.)
